TARGET: UniProt:P43220
TEST PROTOCOL: GLP-1R agonist cAMP stimulation assay (HEK293/GLP1R/CRE-LUC cells)
CONDITION LABEL: 30 min incubation, read-out: GLP1R cAMP Stimulation DR: EC50
pEC50: −log10 of the molar value.
READOUT TYPE: pEC50

COMPOUND	pEC50
O=C(O)c1ccc2nc(CN3CCC(c4cccc5c4OCC(c4ccc(Cl)cc4F)O5)CC3)n(C[C@@H]3CCO3)c2n1 (mixture of isomers) [Compound 104a]	7.70 to 9.70
O=C(O)c1ccc2nc(CN3CCC(c4cccc5c4OC[C@H](c4ccc(Cl)cc4F)O5)CC3)n(C[C@@H]3CCO3)c2c1 [Compound 120c]	6.70 to 7.70
O=C(O)c1ccc2nc(CN3CCC(c4cccc5c4OCC(c4ccc(Cl)cc4F)C5)CC3)n(C[C@@H]3CCO3)c2n1 (some centres unmarked) [Compound 106a]	7.70 to 9.70
O=C(O)c1ccc2nc(CN3CCC(c4cccc5c4OC(c4ccc(Cl)cc4F)CO5)CC3)n(C[C@@H]3CCO3)c2n1 (single isomer, unassigned) [Compound 130c]	7.70 to 9.70

In the following, a different compound is considered.
Please give the measured pEC50 for this compound: O=C(O)c1ccc2nc(CN3CCC(c4cccc5c4OC[C@@H](c4ccc(Cl)cc4F)O5)CC3)n(C[C@@H]3CCO3)c2n1 [Compound 104b] 7.70 to 9.70

* * *

TARGET: GLP-1 Receptor (Homo sapiens (Human))
Sequence (P43220 24-463): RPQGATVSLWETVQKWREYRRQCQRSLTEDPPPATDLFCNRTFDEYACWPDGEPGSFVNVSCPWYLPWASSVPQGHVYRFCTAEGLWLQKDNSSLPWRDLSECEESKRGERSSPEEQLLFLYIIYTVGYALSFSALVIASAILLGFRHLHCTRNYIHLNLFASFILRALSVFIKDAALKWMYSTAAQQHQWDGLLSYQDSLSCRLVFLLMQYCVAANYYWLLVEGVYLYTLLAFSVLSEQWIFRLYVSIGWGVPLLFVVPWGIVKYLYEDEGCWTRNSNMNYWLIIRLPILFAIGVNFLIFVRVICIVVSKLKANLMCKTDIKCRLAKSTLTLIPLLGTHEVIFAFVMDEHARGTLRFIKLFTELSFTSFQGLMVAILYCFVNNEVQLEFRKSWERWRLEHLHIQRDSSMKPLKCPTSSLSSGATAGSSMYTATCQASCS
TEST PROTOCOL: GLP-1R agonist cAMP stimulation assay (HEK293/GLP1R/CRE-LUC cells)
CONDITION LABEL: 30 min incubation, read-out: GLP1R cAMP Stimulation DR: EC50
pEC50: −log10 of the molar value.
READOUT TYPE: pEC50

Solved entries (count: 5):
COMPOUND	pEC50
O=C(O)c1ccc2nc(Cc3ccc(-c4cccc5c4OCC(c4ccc(Cl)cc4F)O5)cc3)n(C[C@@H]3CCO3)c2n1 (stereo in doubt) [Compound 107a]	6.70 to 7.70
N#Cc1ccc([C@@H]2COc3c(cccc3C3CCN(Cc4nc5ccc(C(=O)O)cc5n4C[C@@H]4CCO4)CC3)O2)cc1 [Compound 129a]	≥ 9.70
O=C(O)c1ccc2nc(CN3CCC(c4cccc5c4OCC(c4ccccc4F)N5)CC3)n(C[C@@H]3CCO3)c2n1 (stereo partly drawn) [Compound 125a]	6.70 to 7.70
O=C(O)c1ccc2nc(CN3CCC(c4cccc5c4OCC(c4cccc(Cl)c4)O5)CC3)n(C[C@@H]3CCO3)c2n1 (stereo partly drawn) [Compound 112a]	7.70 to 9.70
O=C(O)c1ccc2nc(CN3CCC(c4cccc5c4CCN(c4ccc(Cl)cc4)C5)CC3)n(C[C@@H]3CCO3)c2n1 [Compound 126a]	< 6.70

Please give the measured pEC50 for this compound: O=C(O)c1ccc2nc(CN3CCC(c4cccc5c4OCC(c4ccc(Cl)cc4)O5)CC3)n(C[C@@H]3CCO3)c2c1 (stereo partly drawn) [Compound 115a] ≥ 9.70

* * *

TEST PROTOCOL: Nonhuman primate (NHP) pharmacokinetics (PK) study
Type: in vivo, cynomolgus monkey
CONDITION LABEL: cynomolgus monkey, plasma, 1 mg/kg; male NHP, oral (PO), Dose 1
READOUT TYPE: Tmax (h)
Kindly provide the numeric value in h only, without the unit symbol.

Please give the measured Tmax for this compound: N#Cc1ccc(COc2cccc(C3CCN(Cc4nc5ccc(C(=O)O)cc5n4C[C@@H]4CCO4)CC3)n2)c(F)c1 5.33
